Values were extracted from patent US6083917A.

# systemName: rat brain farnesyltransferase (Rattus norvegicus, UniProt Q02293+Q04631)
# assayNotes: Farnesyltransferase assay: transfer of [3H]farnesyl from [3H]FPP to p21H-ras (TCA filter assay), competition by peptides
# Assay type: biochemical
# Parameters: Brains from 50 male Sprague-Dawley rats (100-150 g) were homogenized; from tissue; host or cells: rat brain (male Sprague-Dawley rats)
# conditionLabel: Table III; six concentrations 0.03 to 10 μM; read-out: Concentration for 50% Inhibition of Farnesylation of p21H-ras
Residues, ends and D or L forms follow the SMILES beside them. *: point of attachment. Octanoyl = CCCCCCCC(=O)*
measure: pIC50
Formally, pIC50 is defined as -log10 of the concentration c, with c in mol/L.

*Q* Report pIC50 for CSCC[C@H](NC(=O)[C@H](Cc1ccccc1)NC(=O)[C@@H](NC(=O)[C@H](CS)NC(=O)[C@H](CS)NC(C)=O)C(C)C)C(=O)O [N-AcCCVFM] (Ac-CCVFM-OH) please.
*A* 6.96

*Q* Report pIC50 for CSCC[C@H](NC(=O)[C@H](Cc1ccccc1)NC(=O)[C@@H](NC(=O)[C@H](CS)NC(=O)[C@@H](N)CS)C(C)C)C(=O)O [CCVFM] (H-CCVFM-OH) please.
*A* 6.36

*Q* Report pIC50 for CSCC[C@H](NC(=O)[C@H](Cc1c[nH]c2ccccc12)NC(=O)[C@@H](NC(=O)[C@@H](N)CS)C(C)C)C(=O)O [CVWM] (H-CVWM-OH) please.
*A* 6.49

*Q* Report pIC50 for CCCCCCCC(=O)N[C@@H](CS)C(=O)N[C@H](C(=O)N[C@@H](Cc1ccccc1)C(=O)N[C@@H](CCSC)C(=O)O)C(C)C [N-Octanoyl-CVFM] (Octanoyl-CVFM-OH) please.
*A* 6.46

*Q* Report pIC50 for CSCC[C@H](NC(=O)[C@H](Cc1c[nH]c2ccccc12)NC(=O)[C@@H](NC(=O)[C@H](CS)NC(C)=O)C(C)C)C(=O)O [N-AcCVWM] (Ac-CVWM-OH) please.
*A* 5.43

*Q* Report pIC50 for CSCC[C@H](NC(=O)[C@H](Cc1ccccc1)NC(=O)[C@@H](NC(=O)[C@H](CS)NC(C)=O)C(C)C)C(=O)O [N-AcCVFM] (Ac-CVFM-OH) please.
*A* 6.60

*Q* Report pIC50 for CC[C@H](C)[C@H](NC(=O)[C@@H](NC(=O)[C@@H](N)CS)C(C)C)C(=O)N[C@@H](CCSC)C(=O)O [CVIM] (H-CVIM-OH) please.
*A* 6.82

*Q* Report pIC50 for CC[C@H](C)[C@H](NC(=O)[C@@H](NC(=O)[C@H](CS)NC(C)=O)C(C)C)C(=O)N[C@@H](CCSC)C(=O)O [N-AcCVIM] (Ac-CVIM-OH) please.
*A* 6.82
